# target of assay: human glucagon receptor (human, UniProt P47871 26-477)
# Sequence (P47871 26-477): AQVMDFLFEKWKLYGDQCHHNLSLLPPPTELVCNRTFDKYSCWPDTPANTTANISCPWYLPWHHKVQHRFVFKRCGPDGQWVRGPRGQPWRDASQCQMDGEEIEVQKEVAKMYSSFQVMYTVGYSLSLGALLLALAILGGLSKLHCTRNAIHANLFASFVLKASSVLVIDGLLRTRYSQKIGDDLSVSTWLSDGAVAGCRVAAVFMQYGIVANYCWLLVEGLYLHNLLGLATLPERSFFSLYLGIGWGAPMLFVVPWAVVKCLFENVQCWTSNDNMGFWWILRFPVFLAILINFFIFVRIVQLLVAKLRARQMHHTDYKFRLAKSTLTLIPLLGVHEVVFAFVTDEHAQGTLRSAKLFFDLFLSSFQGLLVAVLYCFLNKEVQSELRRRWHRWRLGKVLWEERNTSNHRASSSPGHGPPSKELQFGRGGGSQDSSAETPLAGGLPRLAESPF
# protocol description: cell-based or functional assay
Numbered stars: 1 amine (or outer) side, 2 acyl side, 3 side chain; on linkers, the order of the positions; unused ones are H or OH. Square brackets hold non-standard residues; d marks the D form. Side chains are listed from the residue outwards. Ends that are not written are not given here. γGlu = O=C(O)[C@H](CCC(=O)[*:2])N[*:1]; x53 = not defined here; x70 = not defined here; Aib = CC(C)(N)C(=O)O
// class assignment uses EC50 hGlucagon-R (cAMP) with these ranges: bottom = under 6 pM, middle = from 6 pM up to 10 pM, top = 10 pM and over

# example entries with known answers
• HXQGTFTSDLSKQKESRRAQDFIEWLKRGGPSSGAPPPS (dSer at 2; K(γE-x53) at 14; C-terminal NH2) [SEQ ID NO: 127] = middle
• HXQGTFTSDLSKQKESRAAQDFIEWLKAGGPSSGAPPPS (dSer at 2; K(γE-x80) at 14; C-terminal NH2) [SEQ ID NO: 62] = top
• H[Aib]QGTFTSDLSKQK([γGlu-x70])DEEAAKLFIEWLKAGGPSSGAPPPS-NH2 (reading uncertain) [SEQ ID NO: 213] = top
• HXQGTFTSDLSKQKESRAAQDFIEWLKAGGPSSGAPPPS (dSer at 2; K(γE-x81) at 14; C-terminal NH2) [SEQ ID NO: 63] = middle
• HXQGTFTSDLSKQXESRRAQDFIEWLKAGGPSSGAPPPS (dSer at 2; Orn(γE-x53) at 14; C-terminal NH2) [SEQ ID NO: 71] = bottom
• H[Aib]QGTFTSDLSKQK([γGlu-γGlu-x53])DEQRAKEFIEWLKSGGPSSGAPPPS-NH2 (reading uncertain) [SEQ ID NO: 207] = bottom

[in] For HXQGTFTSDLSKQKDSRRAQDFIEWLKRGGPSSGAPPPS (dSer at 2; K(γE-x53) at 14; C-terminal NH2) [SEQ ID NO: 125] , which EC50 hGlucagon-R (cAMP) bin applies?
[out] middle
